experiment: Pharmacokinetic evaluation in rats after intravenous or intragastric administration; type: in vivo; conditions: SD, rat, plasma, iv, 1 mg/kg
recorded-metric: clearance (mL/min/kg)
Report the value in mL/min/kg with no unit label.

In: Please look up its clearance: Cc1nc(-c2cnc(N3CCN(CCCc4c[nH]c5ccc(C#N)cc45)CC3)nc2)sc1C(N)=O
Out: 9.22

---

Observed IC50 for UniProtKB P31645, reported per entry below.
Sequence (P31645 whole entry): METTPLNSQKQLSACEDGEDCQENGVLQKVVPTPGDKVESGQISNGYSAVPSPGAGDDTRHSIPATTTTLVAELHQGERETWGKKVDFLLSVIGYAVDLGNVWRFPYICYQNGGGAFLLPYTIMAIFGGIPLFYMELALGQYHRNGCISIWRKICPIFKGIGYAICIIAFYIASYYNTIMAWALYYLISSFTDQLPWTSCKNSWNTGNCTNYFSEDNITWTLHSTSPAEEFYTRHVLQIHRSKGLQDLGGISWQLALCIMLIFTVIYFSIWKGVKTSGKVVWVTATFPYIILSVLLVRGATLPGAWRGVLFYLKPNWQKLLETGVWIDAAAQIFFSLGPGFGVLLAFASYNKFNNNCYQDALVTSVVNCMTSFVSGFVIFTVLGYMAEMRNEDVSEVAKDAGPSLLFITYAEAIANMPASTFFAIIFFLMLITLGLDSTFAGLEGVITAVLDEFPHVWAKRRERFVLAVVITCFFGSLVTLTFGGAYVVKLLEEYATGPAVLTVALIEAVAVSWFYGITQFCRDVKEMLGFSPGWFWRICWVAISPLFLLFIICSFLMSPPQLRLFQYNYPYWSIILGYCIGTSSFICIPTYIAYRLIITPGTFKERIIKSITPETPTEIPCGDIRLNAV
Your answer should be a plain number; it is taken to be in nM.

See these solved cases before continuing.
{"columns": ["structure-notation", "IC50 (nM)"],
 "data": [
  ["N#Cc1ccc2[nH]cc(CCCCN3CCN(c4ncc(-c5cccc(C(N)=O)n5)cn4)CC3)c2c1", 0.66],
  ["Cc1nc(-c2cnc(N3CCN(CCCCc4c[nH]c5ccc(C#N)cc45)CC3)nc2)sc1C(N)=O", 0.77],
  ["N#Cc1ccc2[nH]cc(CCCCN3CCN(c4ncc(-c5ccc(C(N)=O)nc5)cn4)CC3)c2c1", 0.79],
  ["N#Cc1ccc2[nH]cc(CCCCN3CCN(c4ncc(-c5ccc(C(N)=O)cn5)cn4)CC3)c2c1", 0.68]
]}

In: Reported IC50 for UniProtKB P31645, given CCOC(=O)c1sc(-c2cnc(N3CCN(CCCCc4c[nH]c5ccc(C#N)cc45)CC3)nc2)nc1C ?
Out: 0.45

---

experiment: Pharmacokinetic evaluation in rats after intravenous or intragastric administration; type: in vivo; conditions: SD, rat, plasma, po, 2.5 mg/kg
recorded-metric: Tmax (h)
Quick reminder: number only, in h, skip the unit.

In: If you can, please state the reported Tmax value of Cc1nc(-c2cnc(N3CCN(CCCc4c[nH]c5ccc(C#N)cc45)CC3)nc2)sc1C(N)=O [Example 8] .
Out: 1

---

experiment: Pharmacokinetic evaluation in rats after intravenous or intragastric administration; assay type: in vivo; conditions: SD, rat, plasma, iv, 1 mg/kg, read-out: Vss
recorded-metric: Vd

In: What value of Vd has been reported for the following compound? Cc1nc(-c2cnc(N3CCN(CCCc4c[nH]c5ccc(C#N)cc45)CC3)nc2)sc1C(N)=O [Example 8]
Out: 1.3 L/kg

---

Assay: Pharmacokinetic evaluation in rats after intravenous or intragastric administration
Assay type: in vivo
Details: SD, rat, plasma, po, 2.5 mg/kg
Method: Pharmacokinetics of the compound of the invention in rats, dogs and monkeys were studied and evaluated. The compound was administered to the tested animals in the form of 5% DMSO+5% Kolliphor HS15+2% (2% HCl)+88% Saline saline solution or 10% DMSO+10% Kolliphor HS15+80% normal saline solution. […]
recorded-metric: AUC(0-t) (ng·h/mL)
State the answer as a number, implicitly in ng·h/mL.

In: Please give the measured AUC(0-t) for this compound: Cc1nc(-c2cnc(N3CCN(CCCc4c[nH]c5ccc(C#N)cc45)CC3)nc2)sc1C(N)=O [Example 8]
Out: 1740

---

Listing: Ki of selected compounds
Biological target: 5-HT1A receptor (Homo sapiens, UniProt P08908)
Sequence (P08908 1-422): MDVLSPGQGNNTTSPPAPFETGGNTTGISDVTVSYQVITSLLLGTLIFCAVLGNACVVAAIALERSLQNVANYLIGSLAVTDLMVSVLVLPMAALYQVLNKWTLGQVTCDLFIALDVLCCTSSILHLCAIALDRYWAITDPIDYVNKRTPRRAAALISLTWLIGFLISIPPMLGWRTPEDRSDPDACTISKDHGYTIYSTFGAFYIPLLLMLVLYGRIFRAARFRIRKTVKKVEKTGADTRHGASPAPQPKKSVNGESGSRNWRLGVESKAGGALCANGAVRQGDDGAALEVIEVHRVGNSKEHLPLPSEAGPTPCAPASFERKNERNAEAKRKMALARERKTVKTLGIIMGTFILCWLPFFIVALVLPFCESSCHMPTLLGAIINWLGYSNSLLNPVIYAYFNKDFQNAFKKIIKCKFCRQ
Please state the figure in nM; there is no need to write the unit.

{"columns": ["compound", "target-or-test-system", "measurement-unit", "Ki"],
 "data": [
  ["Cc1nc(-c2cnc(N3CCN(CCCCc4c[nH]c5ccc(C#N)cc45)CC3)nc2)sc1C(N)=O [Example 7]", "5-HT1A receptor (Homo sapiens, UniProt P08908)", "nM", 1.01]
]}

In: Endpoint output: Ki of N#Cc1ccc2[nH]cc(CCCN3CCN(c4ncc(-c5ccc(C(N)=O)nc5)cn4)CC3)c2c1 [Example 4] . Value?
Out: 4.13

In: Quick one: Ki of Cc1nc(-c2cnc(N3CCN(CCCc4c[nH]c5ccc(C#N)cc45)CC3)nc2)sc1C(N)=O [Example 8] ?
Out: 2.14

In: Look up Ki: N#Cc1ccc2[nH]cc(CCCN3CCN(c4ncc(-c5cccc(C(N)=O)n5)cn4)CC3)c2c1 [Example 6]
Out: 1.1
